Tested on: HCT-116
Procedure details: Antiproliferative activity against human HCT-116 cells assessed as inhibition of cell growth at 20 uM incubated for 48 hrs by MTT assay
Type: functional
Is inhibition at 20 µM at least 70%? Then Satisfied. If not, Not satisfied.

Decide: is the reported value of inhibition at 20 µM for NC(=O)c1ccccc1OCc1ccccc1NC(=O)Nc1cccc(F)c1 equal to or greater than 70%?
Not satisfied

Hi, just wondering whether COc1cccc(NC(=O)Nc2cccc(CNc3ccccc3C(N)=O)c2)c1 shows inhibition at 20 µM of 70% or higher.
Not satisfied

Quick check: does Cc1cccc(NC(=O)Nc2cccc(COc3ccccc3C(N)=O)c2)c1 have inhibition at 20 µM greater than or equal to 70%?
Not satisfied

Form field: inhibition at 20 µM at least 70%? Entry: NC(=O)c1ccccc1OCc1ccccc1NC(=O)Nc1ccccc1
Not satisfied

Is reported inhibition at 20 µM greater than or equal to 70% here: NC(=O)c1ccccc1NCc1ccccc1NC(=O)Nc1ccccc1
Satisfied

In plain terms: is recorded inhibition at 20 µM at least 70% for NC(=O)c1ccccc1OCc1cccc(NC(=O)Nc2cccc(Br)c2)c1 ?
Satisfied

Check the entry Cc1cccc(NC(=O)Nc2cccc(CNc3ccccc3C(N)=O)c2)c1 : does inhibition at 20 µM equal or exceed 70%?
Satisfied

Is inhibition at 20 µM at least 70%? Consider NC(=O)c1ccccc1NCc1ccc(NC(=O)Nc2cccc(Br)c2)cc1
Satisfied

# check: inhibition at 20 µM of Cc1cccc(NC(=O)Nc2ccc(COc3ccccc3C(N)=O)cc2)c1 is greater than or equal to 70%
Not satisfied

Could you tell me if the measured inhibition at 20 µM of NC(=O)c1ccccc1OCc1cccc(NC(=O)Nc2cccc(F)c2)c1 reaches 70% or more?
Not satisfied

Textbook exercise: given the entry COc1cccc(NC(=O)Nc2ccc(COc3ccccc3C(N)=O)cc2)c1 , state whether its inhibition at 20 µM is greater than or equal to 70%.
Not satisfied

Can NC(=O)c1ccccc1NCc1cccc(NC(=O)Nc2cccc(Cl)c2)c1 be said to have inhibition at 20 µM at or above 70%?
Satisfied
